Listed compounds paired with reported pKi
Molecular target: Cannabinoid receptor 2 (Homo sapiens, UniProt P34972)
Sequence (P34972 whole entry): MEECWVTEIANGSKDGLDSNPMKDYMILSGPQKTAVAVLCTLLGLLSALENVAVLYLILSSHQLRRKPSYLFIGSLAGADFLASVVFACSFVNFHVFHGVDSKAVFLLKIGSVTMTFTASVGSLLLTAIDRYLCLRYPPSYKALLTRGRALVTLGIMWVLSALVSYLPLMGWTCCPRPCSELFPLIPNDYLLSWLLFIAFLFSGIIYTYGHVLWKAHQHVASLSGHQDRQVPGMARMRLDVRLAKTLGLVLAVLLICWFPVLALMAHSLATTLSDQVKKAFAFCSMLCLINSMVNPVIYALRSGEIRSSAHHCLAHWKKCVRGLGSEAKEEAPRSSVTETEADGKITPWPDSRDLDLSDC
# log scale: pKi equals minus log10 of the concentration in mol/L

>  <COMPOUND SMILES>
CCCCCCN1C(=O)/C(=N\NC(=O)c2ccccc2)c2ccccc21

>  <OBSERVATION TYPE>
pKi

>  <MEASURED VALUE>
7.35

$$$$
>  <COMPOUND SMILES>
O=C(N/N=C1\C(=O)N(Cc2ccccc2)c2ccccc21)c1ccccc1

>  <OBSERVATION TYPE>
pKi

>  <MEASURED VALUE>
7.73

$$$$
>  <COMPOUND SMILES>
O=C(N/N=C1\C(=O)N(CCC2CCCCC2)c2ccccc21)c1ccccc1

>  <OBSERVATION TYPE>
pKi

>  <MEASURED VALUE>
7.23

$$$$
>  <COMPOUND SMILES>
CCCCCCN1C(=O)/C(=N\NC(=O)OC(C)(C)C)c2ccccc21

>  <OBSERVATION TYPE>
pKi

>  <MEASURED VALUE>
7.86

$$$$

Attention now turns to another entry.
input: Write down the reported pKi of CCCCN1C(=O)/C(=N\NC(=O)c2ccccc2)c2ccccc21 , test system: Cannabinoid receptor 2 (Homo sapiens, UniProt P34972).
output: 7.71

Source of measurements: ChEMBL document CHEMBL1156573
